Hey, just so you know, these numbers are from the RNAGym collection of RNA variant scans (doi:10.1038/s41586-018-0170-7).

B1: tRNA (parent)
chain: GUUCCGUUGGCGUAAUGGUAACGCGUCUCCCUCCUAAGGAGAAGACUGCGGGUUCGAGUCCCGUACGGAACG

Variants of: B1
experimentSummary: yeast fitness, log relative to wild type (ln ratio); higher = fitter; tRNA-Arg(CCU), competitive growth, 37 C, 1 M NaCl
Lab note: compare yeast fitness (ln) against -0.2. Equal or greater, write criterion met. Smaller, write criterion not met.

Example results:
mutationkey="G1A G6U C46U A69G A70U" classification="criterion met"
mutationkey="G1A U2G C46U A69G" classification="criterion met"
mutationkey="G6U C27U A43C C66A" classification="criterion met"
mutationkey="G6U A43C C46U C66U A70U C71U" classification="criterion not met"

Textbook exercise: given the entry U2C G6U C66U A69G C71U , state whether its yeast fitness (ln) is greater than or equal to -0.2. criterion met

Textbook exercise: given the entry U2G G6U A43C C46U C66U A70G , state whether its yeast fitness (ln) is greater than or equal to -0.2. criterion met

Textbook exercise: given the entry G1A C27U A43C A70G , state whether its yeast fitness (ln) is greater than or equal to -0.2. criterion met

Textbook exercise: given the entry U2C G6A C46U A70U C71U , state whether its yeast fitness (ln) is greater than or equal to -0.2. criterion met

Textbook exercise: given the entry U2G G6A C27U C46U A69G A70G C71U , state whether its yeast fitness (ln) is greater than or equal to -0.2. criterion met
